Hey, just so you know, these numbers are from patent US20110038881A1.

target: HLA-DRB3*0101 (human); assay: competition binding; conditions: modification not given
pIC50: −log10 of the molar value.
METRIC NAME: pIC50

Here is how some binders turned out for pIC50.
binder="RRYLENGKETLQRTD [p36]" metric_name=pIC50 result_number=5.31
binder="ETLQRTDAPKTHMTH [p37]" metric_name=pIC50 result_number=4.56
binder="EQLRAYLEGTCVEWL [p32]" metric_name=pIC50 result_number=5.96

A = RGYHQYAYDGKDYIA [p22]
B = LTLRWEPSSQPTIPI [p51*]
C = RAYLEGTCVEWLRRY [p33]
D = HQYAYDGKDYIALKE [p23]
E = HTVQRMYGCDVGSDW [p17*]
-- ask Highest pIC50 first, then in falling order down to the smallest. Give your ranking as a list of the labels in the requested order.
-- reply E, A, D, C, B
(E: 6.28, A: 5.89, D: 5.64, C: 5.05, B: 4.54)
